# AC50 per entry for Vasopressin V1a receptor (Homo sapiens, UniProt P37288)

molecule | target-system | AC50
Cc1ccc(NC(=O)C2(c3ccc4c(c3)OC(F)(F)O4)CC2)nc1-c1cccc(C(=O)O)c1 [LUMACAFTOR] | Vasopressin V1a receptor (Homo sapiens, UniProt P37288) | > 30 µM

Value sought for every listed molecule: AC50.
1. COc1cc2c(Nc3ccc(Br)cc3F)ncnc2cc1OCC1CCN(C)CC1 [VANDETANIB]
2. CNC[C@H](O)c1cccc(O)c1 [PHENYLEPHRINE]
3. CNCCCC1c2ccccc2C=Cc2ccccc21 [PROTRIPTYLINE]
4. CC(C)CC(N(C)C)C1(c2ccc(Cl)cc2)CCC1 (stereo not given) [SIBUTRAMINE]

[reply]
> 30 µM
> 10 µM
> 10 µM
> 10 µM

----------
# target-system: UniProtKB P08908
# Sequence (P08908 whole entry): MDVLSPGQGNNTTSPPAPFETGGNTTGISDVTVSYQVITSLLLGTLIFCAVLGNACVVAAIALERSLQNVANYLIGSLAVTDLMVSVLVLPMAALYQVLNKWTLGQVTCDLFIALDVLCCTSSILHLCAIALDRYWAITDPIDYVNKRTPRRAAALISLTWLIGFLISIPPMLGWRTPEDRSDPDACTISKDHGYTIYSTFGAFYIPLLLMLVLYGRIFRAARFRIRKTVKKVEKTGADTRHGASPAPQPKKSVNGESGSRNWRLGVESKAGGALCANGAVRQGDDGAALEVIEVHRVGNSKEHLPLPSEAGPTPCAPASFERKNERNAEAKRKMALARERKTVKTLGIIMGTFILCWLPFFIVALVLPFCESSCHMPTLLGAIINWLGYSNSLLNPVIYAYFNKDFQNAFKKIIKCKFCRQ
# Assay type: functional, cell-based
readout-type: AC50

// worked examples, AC50 included
compound | AC50
CCN(CC)CCOC(=O)c1ccc(N)cc1Cl [CHLOROPROCAINE] | > 30 µM
CN1[C@@H]2CC[C@H]1C[C@@H](OC(=O)c1c[nH]c3ccccc13)C2 [TROPISETRON] | > 30 µM
Cc1ccc(=O)n(-c2ccccc2)c1 [PIRFENIDONE] | > 30 µM

Value sought for every listed compound: AC50.
1. CCOC(=O)Nc1ccc2c(c1)N(C(=O)CCN1CCOCC1)c1ccccc1S2 [MORICIZINE]
2. CC(/C=C1\SC(=S)N(CC(=O)O)C1=O)=C\c1ccccc1
3. CCCCCCNC(=O)n1cc(F)c(=O)[nH]c1=O [CARMOFUR]

[reply]
1. 13 µM
2. > 30 µM
3. > 30 µM

----------
# target-system: Gastrin/cholecystokinin type B receptor (Homo sapiens, UniProt P32239); note: assay procedure not described here
# Sequence (P32239 whole entry): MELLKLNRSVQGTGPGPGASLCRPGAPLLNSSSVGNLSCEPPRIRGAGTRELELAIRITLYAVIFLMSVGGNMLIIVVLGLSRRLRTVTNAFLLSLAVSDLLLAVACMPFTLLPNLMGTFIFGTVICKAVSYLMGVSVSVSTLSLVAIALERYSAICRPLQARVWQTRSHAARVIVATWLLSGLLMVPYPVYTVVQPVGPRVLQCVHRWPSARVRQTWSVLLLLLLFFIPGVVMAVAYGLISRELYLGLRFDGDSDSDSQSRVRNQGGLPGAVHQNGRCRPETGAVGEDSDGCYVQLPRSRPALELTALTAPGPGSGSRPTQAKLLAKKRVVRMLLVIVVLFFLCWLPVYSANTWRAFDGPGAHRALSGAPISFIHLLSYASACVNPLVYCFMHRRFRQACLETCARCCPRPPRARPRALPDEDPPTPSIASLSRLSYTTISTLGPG
readout-type: AC50

molecule | AC50
CN(C)C(=O)Oc1cc(OC(=O)N(C)C)cc(C(O)CNC(C)(C)C)c1 (stereo not given) | > 30 µM
CC[N+]1(C)CCCC(OC(=O)C(O)(c2ccccc2)c2ccccc2)C1 (stereo not given) [PIPENZOLATE] | > 30 µM
CC(=O)OCC[N+](C)(C)C | > 30 µM
CN1C[C@H](C(=O)N[C@]2(C)O[C@@]3(O)[C@@H]4CCCN4C(=O)[C@H](Cc4ccccc4)N3C2=O)C[C@@H]2c3cccc4[nH]cc(c34)C[C@H]21 [DIHYDROERGOTAMINE] | > 30 µM
CN1c2ccccc2C(NCCCCCCC(=O)O)c2ccc(Cl)cc2S1(=O)=O (stereo not given) | > 30 µM
CC(C)N(CCCCOCC(=O)NS(C)(=O)=O)c1cnc(-c2ccccc2)c(-c2ccccc2)n1 | > 10 µM
N=C(N)c1ccc2cc(OC(=O)c3ccc(N=C(N)N)cc3)ccc2c1 | > 30 µM
CC(C)c1cc2c(cc1S(=O)(=O)O)[C@@]1(C)CCC[C@@](C)(C(=O)O)[C@@H]1CC2 | > 30 µM

Value sought for every listed molecule: AC50.
1. O=C(O)c1ccccc1Nc1cccc(C(F)(F)F)c1
2. COc1cc(OC)c(C(=O)CCCN2CCCC2)c(OC)c1
3. O=C1CN=C(c2ccccc2)c2cc(Cl)ccc2N1
4. CCOC(=O)NNc1ccc(N(CC)CC(C)O)nn1 (stereo not given)
5. Nc1nc2c(c(=O)[nH]1)N(C=O)C(CNc1ccc(C(=O)N[C@@H](CCC(=O)O)C(=O)O)cc1)CN2 (stereo not given in full)
6. Cc1ccc(NC(=O)C2(c3ccc4c(c3)OC(F)(F)O4)CC2)nc1-c1cccc(C(=O)O)c1
7. COc1ccc(C(CN(C)C)C2(O)CCCCC2)cc1 (stereo not given)

[reply]
1. > 30 µM
2. > 30 µM
3. > 30 µM
4. > 30 µM
5. > 30 µM
6. > 10 µM
7. > 30 µM

Value sought for every listed molecule: AC50.
1. O=C(CCCN1CCC(n2c(O)nc3ccccc32)CC1)c1ccc(F)cc1
2. O=C(Nc1nc(-c2cc(Cl)cs2)c(N2CCN(C3CCCCC3)CC2)s1)c1cnc(N2CCC(C(=O)O)CC2)c(Cl)c1
3. C[C@@H]1CCC[C@H](C)N1NC(=O)c1ccc(Cl)c(S(N)(=O)=O)c1 [CLOPAMIDE]

[reply]
> 30 µM
> 10 µM
> 30 µM

Value sought for every listed molecule: AC50.
1. O=C(CCCN1CCC2(CC1)C(=O)NCN2c1ccccc1)c1ccc(F)cc1
2. CCCCCCNC(=O)n1cc(F)c(=O)[nH]c1=O
3. CC#CCn1c(N2CCC[C@@H](N)C2)nc2c1c(=O)n(Cc1nc(C)c3ccccc3n1)c(=O)n2C
4. CCCC(C)(COC(N)=O)COC(=O)NC(C)C (stereo not given)

[reply]
1. > 30 µM
2. > 30 µM
3. > 30 µM
4. > 30 µM
